Population Hoechst High Intensity Objects (%) reference
# Test system: Fibroblast
# Assay name: Multiplex assay against human fibroblast
# Assay type: toxicity, cell-based
# Test conditions: 24 h, 10 µM, compound concentration 10 uM, replicate 1
// return numeric value only (unit: %, not printed)

[
  {
    "Structure smiles string": "O=C(O)c1ccc2cc(-c3ccc(O)c(C45CC6CC(CC(C6)C4)C5)c3)ccc2c1",
    "Measurement unit": "%",
    "Numeric value": 21
  },
  {
    "Structure smiles string": "CNC(=O)c1cc(Oc2ccc(NC(=O)Nc3cc(C(C)(C)C)nn3-c3ccc4ncccc4c3)c(F)c2)ccn1",
    "Measurement unit": "%",
    "Numeric value": 14
  },
  {
    "Structure smiles string": "Cl.Cl.NC1(c2ccc(-c3nc4ccn5c(=O)[nH]nc5c4cc3-c3ccccc3)cc2)CCC1",
    "Measurement unit": "%",
    "Numeric value": 53
  },
  {
    "Structure smiles string": "CCCn1c(=O)c2[nH]c(C34CC5CC(CC3C5)C4)nc2n(CCC)c1=O",
    "Measurement unit": "%",
    "Numeric value": 13
  },
  {
    "Structure smiles string": "CCOc1cc(N2CCC(O)CC2)ccc1Nc1ncc2c(n1)N(C1CCCC1)CCC(=O)N2C",
    "Measurement unit": "%",
    "Numeric value": 19
  }
]

Problem: Value lookup for Population Hoechst High Intensity Objects (%); key = COc1ccc(NS(=O)(=O)c2sc3ccc(Cl)cc3c2C)cc1N1CCNCC1.Cl
Solution: 25

Problem: Value lookup for Population Hoechst High Intensity Objects (%); key = CNc1oc(-c2cccc3ccccc23)nc1C#N
Solution: 66

From: ChEMBL document CHEMBL4689842
